experimental.protocol: NCI Yeast Anticancer Drug Screen. Data for the cln2 rad14 strain (AID 165);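 note: 0% = growth equal to vehicle treated cultures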
condition.parameters: S. cerevisiae cln2 rad14 strain, at 50.0 µM, active compounds read high
This is part of a sample that, as a whole, favours compounds with a hit. Of some 79,000 tested, about 15% had one in any assay.
Listed next: entries and their corresponding growth inhibition.
A number alone suffices; assume %.

Observe how each entry below is paired with its result.
compound: O=[N+]([O-])c1ccc(CC(c2ccc([N+](=O)[O-])cc2)(c2ccc([N+](=O)[O-])cc2)c2ccc([N+](=O)[O-])cc2)cc1
unit.abbreviation: %
growth inhibition: 8.7

compound: CN(c1ccc(Cl)cc1)S(=O)(=O)c1cccc([N+](=O)[O-])c1
unit.abbreviation: %
growth inhibition: 48.4

compound: Nc1ncnc2c1ncn2C1OCC(O)C1O (stereo not given)
unit.abbreviation: %
growth inhibition: 64.5

growth inhibition reading for `O=C(/C=C/c1ccccc1)c1ccc(NCc2nc3ccccc3[nH]2)cc1` : 84.8

growth inhibition reading for `CCn1c(=O)cc2n(C)c3ccccc3n2c1=O` : 62.7

Reference source for all entries: PubChem BioAssay (NCI)
